Assay: Human HepG2 cell viability assay in 384 well format
Type: toxicity, cell-based
Parameters: dose 125 nL, time 70.5 hour; concentration not given beside the values
Settings: HepG2 cells, read-out: Inhibition
recorded_metric: cytotoxicity at 70.5 h (%)
Number only, in %; omit the unit.

Observe how each entry below is paired with its result.
- CC(C)N1CCc2[nH]nc(C(=O)N3CCCC3C)c2C1 (stereo not drawn): -4.03
- Cc1cc(C)cc(N2CCN(C(=O)C3CN(C)C(=O)N3)CC2=O)c1 (stereo not drawn): -9.45
- O=C(c1cscn1)N1CCc2[nH]nc(Nc3ccccc3)c2C1: -6.3
- CN(Cc1ccccn1)C(=O)[C@]12COC[C@H]1CN(Cc1cnn(C)c1)C2: -15.4
- CC(C)N(Cc1ccccc1)C(=O)c1cc(C2CCCN2C)ccn1 (stereo not drawn): -6.6
- COCCN1CCN(Cc2cccc(C(=O)N(C)C)c2)CC1: -4.26
- COc1ccc(F)c(CN2CCCC(O)(CNC3CCCCC3)C2=O)c1 (stereo not drawn): -2.81
- Cc1ccsc1C(=O)NCC1COCc2c(C)nnn2C1 (stereo not drawn): -1.54

Shift focus to the following entry.
# lookup: cytotoxicity at 70.5 h of Cn1ccnc1CN1CCN(CCOc2ccccc2C#N)CC1 23.6

---

Assay: Human HepG2 cell viability assay in 384 well format
Format: toxicity, cell-based
Set-up: dose 125 nL, time 70.5 hour; concentration not given beside the values
Settings: HepG2 cells, read-out: Inhibition
recorded_metric: cytotoxicity at 70.5 h (%)
Number only, in %; omit the unit.

Observe how each entry below is paired with its result.
* CC(C)NC(=O)c1noc2c1CN(Cc1cnn(C)c1)CC2 | -5.58
* CN(Cc1ccc(Cl)s1)C(=O)Cn1nc(-c2ccc(F)cc2)oc1=O | -13.3
* N#Cc1cccc(CN2CCO[C@@H]3CNC[C@@H]32)c1 | -1.26
* Cc1sc(NC(=O)CN(C)S(C)(=O)=O)c(C#N)c1C | 10
* CCN1CC2(CC1=O)CN(C(=O)NC(C)C)CCN(C(=O)NC(C)C)C2 | -4.47

# lookup: cytotoxicity at 70.5 h of Cc1ccc(CCNc2ncnc3sc4c(c23)CCNC4)o1 -8.67

# lookup: cytotoxicity at 70.5 h of O=C(Nc1cccnc1N1CCSCC1)c1ccc2c(c1)OCO2 -4.23

# lookup: cytotoxicity at 70.5 h of CCS(=O)(=O)N1Cc2nccn2CC(Cn2nc(C)nc2C)C1 (stereo unspecified) -13.6

# lookup: cytotoxicity at 70.5 h of O=S(=O)(c1c(F)cccc1F)N1CCCC1c1nnc2n1CCCCC2 (stereo unspecified) -12.1

# lookup: cytotoxicity at 70.5 h of COc1ccncc1NC(=O)C1(c2ccc(F)cc2)CCC1 -6.62

# lookup: cytotoxicity at 70.5 h of O=C(C1CC1)N1CCN(C(=O)CSc2ccccn2)[C@H]2CS(=O)(=O)C[C@H]21 24

# lookup: cytotoxicity at 70.5 h of CC(C)c1cc(=O)[nH]c(-c2ccccc2CN2CCC(C)(C)C2)n1 5.1

---

Test: Human HepG2 cell viability assay in 384 well format
Type: toxicity, cell-based
Set-up: dose 125 nL, time 70.5 hour; concentration not given beside the values
Conditions: HepG2 cells, read-out: Inhibition
recorded_metric: cytotoxicity at 70.5 h (%)
Number only, in %; omit the unit.

• Cc1nnc(NCC(c2ccco2)N2CCCCC2)c(C#N)c1C (configuration not stated) = -0.616

# lookup: cytotoxicity at 70.5 h of Cc1cc(-n2cccn2)ccc1CN1CCOCC(CN(C)C)C1 (configuration not stated) 27.5

# lookup: cytotoxicity at 70.5 h of CCC(CC)(CC)NC(=O)Nc1nnc(-c2ccccn2)s1 -13.2

# lookup: cytotoxicity at 70.5 h of O=C(NCc1nc(NC2CCCC2)c2cc(Cl)ccc2n1)c1cscn1 -2.54

# lookup: cytotoxicity at 70.5 h of Cc1sc(NS(=O)(=O)c2ccccc2)nc1C(=O)NC1CC1 -1.95

# lookup: cytotoxicity at 70.5 h of CC(C)N(C)Cc1n[nH]c2c1CCN(C(=O)c1cc[nH]n1)C2 21.5

# lookup: cytotoxicity at 70.5 h of CCOCCNS(=O)(=O)c1cc(C)c2nc(O)cc(C)c2c1 21

# lookup: cytotoxicity at 70.5 h of COCCN1CCC2(CC1)CN(C(=O)c1ccccc1)CCO2 -5.3

# lookup: cytotoxicity at 70.5 h of N#Cc1c(C2CC2)cc(-c2ccc(F)c(F)c2)nc1N -3.46

# lookup: cytotoxicity at 70.5 h of CS(=O)(=O)N1CCCC12CCCN(S(=O)(=O)c1cccc(F)c1)C2 (configuration not stated) 2.16

# lookup: cytotoxicity at 70.5 h of Cc1ccc(F)c(S(=O)(=O)NCc2cccc(N3CCOC3=O)c2)c1 -4.03

# lookup: cytotoxicity at 70.5 h of c1ccc(CN2CCc3ncnc(C4CC4)c3CC2)nc1 -1.29

# lookup: cytotoxicity at 70.5 h of Cc1cc(CC(=O)NC2CCCN(Cc3ccccc3)C2=O)n[nH]1 (configuration not stated) -21.2

# lookup: cytotoxicity at 70.5 h of CC1CN(C)c2ccccc2CN1C(=O)c1cnsn1 (configuration not stated) -0.187

# lookup: cytotoxicity at 70.5 h of COc1ccc(OCCc2cc(C3CCN(CC(C)C)C3)n[nH]2)cc1 (configuration not stated) -2.33

# lookup: cytotoxicity at 70.5 h of CCOc1c(Cl)cc(/C=C/c2ncc(C(=O)O)s2)cc1OC -18.4

# lookup: cytotoxicity at 70.5 h of O=C(c1ccc(Cn2cnnn2)cc1)N1CC[C@H](CO)[C@H](O)C1 -8.21

# lookup: cytotoxicity at 70.5 h of CC(C)(C)c1cnc(CN2CCC(NC(=O)C3CCOCC3)CC2)o1 -5

# lookup: cytotoxicity at 70.5 h of c1ccc(-c2nc(CN3CCCCC3Cn3cncn3)co2)cc1 (configuration not stated) -0.916

# lookup: cytotoxicity at 70.5 h of Cc1nc(-c2ccncc2)ncc1C(C)NC(=O)CN1CCOC1=O (configuration not stated) -5.31

---

The entries below come with measured cytotoxicity at 70.5 h values attached.
Test: Human HepG2 cell viability assay in 384 well format
Type: toxicity, cell-based
Parameters: dose 125 nL, time 70.5 hour; concentration not given beside the values
Conditions: HepG2 cells, read-out: Inhibition
Number only, in %; omit the unit.

Observe how each entry below is paired with its result.
- Cc1ccc(N2CC[C@H]3[C@@H]2CCC(=O)N3CCN2CCOCC2)nn1: -6.53
- Cc1nccc(NCc2cc3n(n2)CCCN(S(C)(=O)=O)C3)n1: -3.08
- CC(C)C(=O)N1CCC2(CC1)NC(=O)c1ccccc12: -2.39

# lookup: cytotoxicity at 70.5 h of CC(C)CCN(c1cn[nH]c1)S(=O)(=O)c1cccc(C#N)c1 18.2

# lookup: cytotoxicity at 70.5 h of CC1c2ncc(Cn3cccn3)n2CCN1Cc1ccccn1 (configuration not stated) -1.75

# lookup: cytotoxicity at 70.5 h of CC(C)(C)OC(=O)NCCNC(=O)c1cnc(-c2ccccc2)nc1 -0.668

# lookup: cytotoxicity at 70.5 h of Cc1ccn(-c2ccccc2NCc2cccnc2)n1 5.47

# lookup: cytotoxicity at 70.5 h of C[C@@H]1C(=O)NC[C@H]2CN(Cc3ccc4c(c3)OCO4)C[C@H]21 -10.2

---

Assay: Human HepG2 cell viability assay in 384 well format
Type: toxicity, cell-based
Design: dose 125 nL, time 70.5 hour; concentration not given beside the values
Conditions: HepG2 cells, read-out: Inhibition
The entries below come with measured cytotoxicity at 70.5 h values attached.
Number only, in %; omit the unit.

Observe how each entry below is paired with its result.
* O=C(C1CCCC1)N1CC2(CCNC2)OCc2ccccc21 (configuration not stated) | -9.78
* CCc1noc(C(C)N(C)CC(=O)Nc2cccc(C)c2C)n1 (configuration not stated) | 20.2
* Cc1cc(C(=O)NCC(=O)NC(c2ncccc2C)C(C)C)c(C)o1 (configuration not stated) | 3.7
* COc1ccc(CN(C)[C@@H]2CN(C(=O)c3ccnn3C)C[C@H]2O)cc1 | -3.38
* CCNC(=O)C1(Cc2cc(-c3ccc(C)cc3)no2)CCCN(C)C1 (configuration not stated) | -5.63
* O=C(Nc1ccc2c(c1)C(=O)NC2=O)c1cccs1 | -4.03
* COCCn1cnnc1C1CCCN(C(C)C)C1 (configuration not stated) | 17.1
* CC(C)c1ocnc1C(=O)N1CC(=O)Nc2cccnc21 | -1.78

# lookup: cytotoxicity at 70.5 h of c1cnc2c(c1)nc1n2[C@@H](CNC2CCOCC2)COC1 -4.98

# lookup: cytotoxicity at 70.5 h of O=C(c1ncccn1)N1CCC2(CC1)COC(COc1ccccn1)C2 (configuration not stated) 10.9

# lookup: cytotoxicity at 70.5 h of Cc1cc(NC(=O)C(C)Nc2cccc(COCc3ccco3)c2)no1 (configuration not stated) -13.8

# lookup: cytotoxicity at 70.5 h of COCCn1cnnc1CN(C)c1nc(N)ncc1C -14.6
